target: human Nav1.8/β1 (Homo sapiens, UniProt Q9Y5Y9); construct: host or cells: HEK293; experiment: Compound Profiling Human NaV1.8/β1 Cell Line—Sophion QPatch II Assay (automated patch clamp, stably transfected HEK293 cells); format: cell-based; conditions: P1, resting state block; Nav1.8/β1 HEK293 cells, holding potential −120 mV; fourth set of compounds; read-out: P1 (IC50, resting state block)
Sequence (Q9Y5Y9 whole entry): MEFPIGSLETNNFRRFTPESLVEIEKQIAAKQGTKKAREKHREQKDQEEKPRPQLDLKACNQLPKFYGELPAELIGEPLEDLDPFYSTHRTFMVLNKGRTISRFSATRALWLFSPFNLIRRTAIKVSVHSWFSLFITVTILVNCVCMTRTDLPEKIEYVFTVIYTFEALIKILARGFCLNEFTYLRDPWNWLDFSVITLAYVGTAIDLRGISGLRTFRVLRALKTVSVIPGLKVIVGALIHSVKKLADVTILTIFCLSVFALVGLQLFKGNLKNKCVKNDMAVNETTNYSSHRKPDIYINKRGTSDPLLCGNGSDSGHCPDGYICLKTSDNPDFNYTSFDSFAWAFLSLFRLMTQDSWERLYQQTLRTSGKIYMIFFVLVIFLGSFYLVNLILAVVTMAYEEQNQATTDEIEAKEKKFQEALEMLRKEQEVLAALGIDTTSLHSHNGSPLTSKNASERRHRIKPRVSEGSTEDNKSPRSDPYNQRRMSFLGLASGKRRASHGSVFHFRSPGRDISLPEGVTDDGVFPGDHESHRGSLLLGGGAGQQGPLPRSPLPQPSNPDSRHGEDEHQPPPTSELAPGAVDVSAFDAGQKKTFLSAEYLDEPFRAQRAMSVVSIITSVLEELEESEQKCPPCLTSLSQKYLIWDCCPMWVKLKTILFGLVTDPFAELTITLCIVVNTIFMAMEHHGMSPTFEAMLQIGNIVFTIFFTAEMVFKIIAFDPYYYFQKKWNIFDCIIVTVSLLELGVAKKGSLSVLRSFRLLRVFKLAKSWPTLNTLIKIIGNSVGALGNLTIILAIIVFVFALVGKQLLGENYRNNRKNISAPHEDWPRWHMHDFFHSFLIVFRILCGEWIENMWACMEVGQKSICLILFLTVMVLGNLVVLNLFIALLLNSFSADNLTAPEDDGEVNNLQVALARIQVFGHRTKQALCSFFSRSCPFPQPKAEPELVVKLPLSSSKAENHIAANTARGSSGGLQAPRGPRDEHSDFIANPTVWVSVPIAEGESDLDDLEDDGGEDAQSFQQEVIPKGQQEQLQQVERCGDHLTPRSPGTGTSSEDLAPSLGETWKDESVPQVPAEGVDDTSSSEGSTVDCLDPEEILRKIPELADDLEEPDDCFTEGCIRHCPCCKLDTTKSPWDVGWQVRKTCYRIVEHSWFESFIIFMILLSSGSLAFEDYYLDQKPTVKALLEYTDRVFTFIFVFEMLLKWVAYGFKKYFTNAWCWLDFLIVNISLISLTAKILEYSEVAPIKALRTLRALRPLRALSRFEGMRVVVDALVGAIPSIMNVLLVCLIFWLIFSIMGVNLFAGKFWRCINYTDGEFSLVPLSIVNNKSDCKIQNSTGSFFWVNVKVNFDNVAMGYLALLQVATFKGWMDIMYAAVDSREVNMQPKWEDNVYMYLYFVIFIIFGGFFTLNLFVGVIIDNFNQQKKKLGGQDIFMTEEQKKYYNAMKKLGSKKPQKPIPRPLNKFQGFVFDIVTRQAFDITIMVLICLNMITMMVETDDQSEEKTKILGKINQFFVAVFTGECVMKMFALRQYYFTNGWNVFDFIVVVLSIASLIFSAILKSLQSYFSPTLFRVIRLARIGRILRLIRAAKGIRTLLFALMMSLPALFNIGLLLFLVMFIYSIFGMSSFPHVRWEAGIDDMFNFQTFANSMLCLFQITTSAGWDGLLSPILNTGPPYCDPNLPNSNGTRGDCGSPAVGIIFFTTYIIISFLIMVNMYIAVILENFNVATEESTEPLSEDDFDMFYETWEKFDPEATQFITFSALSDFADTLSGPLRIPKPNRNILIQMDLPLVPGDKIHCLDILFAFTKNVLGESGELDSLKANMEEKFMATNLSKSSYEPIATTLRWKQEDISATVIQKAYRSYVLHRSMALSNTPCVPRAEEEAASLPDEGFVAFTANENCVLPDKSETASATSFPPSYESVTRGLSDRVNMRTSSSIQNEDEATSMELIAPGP
Sequence (Q07699 19-218 partner): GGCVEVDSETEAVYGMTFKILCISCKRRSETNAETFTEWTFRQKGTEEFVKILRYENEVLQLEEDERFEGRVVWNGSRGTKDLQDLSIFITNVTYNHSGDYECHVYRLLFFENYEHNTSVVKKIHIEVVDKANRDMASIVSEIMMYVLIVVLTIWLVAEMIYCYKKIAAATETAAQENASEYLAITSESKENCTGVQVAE
READOUT_LABEL: IC50

{"columns": ["MOLECULE", "IC50"],
 "data": [
  ["Cc1nc(F)ccc1Oc1ncc(C(F)(F)F)c(C)c1C(=O)Nc1cccc(S2(=O)=NC(=O)CC2)c1 (single isomer, unassigned) [Example 30D]", "> 200 nM"]
]}

As a next step, examine the molecule that follows.
Enquiry: Observed IC50 on human Nav1.8/β1 (Homo sapiens, UniProt Q9Y5Y9) for Cc1nc(F)ccc1Oc1ncc(C(F)(F)F)c(C)c1C(=O)Nc1cccc(S2(=O)=NC(=O)CC2)c1 (single isomer, unassigned) [Example 31D] , please.
Return: 50 to 100 nM

* * *

# pIC50 annotations
molecular target: human Nav1.8/β1 (Homo sapiens, UniProt Q9Y5Y9); construct: host or cells: HEK293; experiment: Compound Profiling Human NaV1.8/β1 Cell Line—Sophion QPatch II Assay (automated patch clamp, stably transfected HEK293 cells); type: cell-based
pIC50: −log10 of the molar value.

{"columns": ["MOLECULE", "RESULT"],
 "data": [
  ["Cc1nc(F)ccc1Oc1ncc(C(F)(F)F)c(C)c1C(=O)Nc1cccc([S@@](=N)(=O)CCCN(C)C)c1 [Example 72C]", "7.30 to 8.30"],
  ["COc1cc(C#N)ccc1Oc1cc(C(F)(F)F)c(Cl)cc1C(=O)Nc1cccc([S@](C)(=N)=O)c1 [Example 27A]", "< 6.70"],
  ["Cc1nc(F)ccc1Oc1ncc(C(F)(F)F)c(C)c1C(=O)Nc1cccc([S@@](=N)(=O)CCCO)c1 [Example 68C]", "6.70 to 7.00"]
]}

Enquiry: Which pIC50 is listed for COc1cc(C#N)ccc1Oc1cc(C(F)(F)F)c(Cl)cc1C(=O)Nc1ccnc([S@](C)(=N)=O)c1 [Example 12A] ?
Return: 7.30 to 8.30

Enquiry: Okay, and Cc1nc(F)ccc1Oc1ncc(C(F)(F)F)c(C)c1C(=O)N[C@H]1C[C@H](C(N)=O)C1 [Example 84C] ?
Return: < 6.70

Enquiry: Okay, and Cc1c(C(F)(F)F)cnc(Oc2ccc(F)nc2CO)c1C(=O)Nc1cccc([S@](C)(=N)=O)c1 [Example 89C] ?
Return: < 6.70

Enquiry: Okay, and Cc1nc(F)ccc1Oc1ncc(C(F)(F)F)c(C)c1C(=O)N(C)c1cccc([S@](C)(=N)=O)c1 [Example 46C] ?
Return: < 6.70

Enquiry: Okay, and Cc1nc(F)ccc1Oc1ncc(C(F)(F)F)c(C)c1C(=O)Nc1ccc(F)c(S(C)(=O)=NCCN)c1 (stereo not drawn) [Example 88C] ?
Return: 7.30 to 8.30

* * *

molecular target: human Nav1.8/b3 (Homo sapiens, UniProt Q9Y5Y9); construct: expressed in transfected cells; host or cells: CHO; assay: Compound Profiling Human NaV1.8/β3 Cell Line—SyncroPatch384PE Assay (automated patch clamp, stably transfected CHO cells); format: cell-based; conditions: P1 measurement, resting state block; Nav1.8/b3 CHO cells, holding potential −120 mV; third set of compounds; read-out: P1 (IC50, resting state block)
Sequence (Q9NY72 23-215 partner, one chain of several): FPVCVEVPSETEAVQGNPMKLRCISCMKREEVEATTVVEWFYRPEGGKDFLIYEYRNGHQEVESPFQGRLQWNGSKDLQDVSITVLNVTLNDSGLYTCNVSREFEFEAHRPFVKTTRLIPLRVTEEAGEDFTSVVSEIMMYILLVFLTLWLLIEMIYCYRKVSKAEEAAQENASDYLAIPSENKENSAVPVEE
READOUT_LABEL: IC50

Past entries and their recorded results:
{"columns": ["MOLECULE", "READOUT_LABEL", "RESULT"],
 "data": [
  ["COc1cc(C#N)ccc1Oc1ncc(-c2ccc(C)cn2)c(C)c1C(=O)Nc1cccc([S@](C)(=N)=O)c1 [Example 22C]", "IC50", "50 to 100 nM"],
  ["Cc1nc(F)ccc1Oc1ncc(C(F)(F)F)c(C)c1C(=O)Nc1cccc(S(C)(=O)=NCC2(N)CC2)c1 (stereo not shown) [Example 92C]", "IC50", "< 5 nM"],
  ["Cc1nc(F)ccc1Oc1cnc(C(F)(F)F)c(C)c1C(=O)Nc1cccc([S@](C)(=N)=O)c1 [Example 44C]", "IC50", "5 to 50 nM"],
  ["CNCCN=[S@](C)(=O)c1cccc(NC(=O)c2c(Oc3ccc(F)nc3C)ncc(C(F)(F)F)c2C)c1 [Example 109C]", "IC50", "< 5 nM"],
  ["Cc1nc(F)ccc1Oc1nc(C2CC2)c(C(F)(F)F)c(C)c1C(=O)Nc1cccc([S@@](C)(=N)=O)c1 [Example 107C]", "IC50", "< 5 nM"],
  ["Cc1nc(F)ccc1Oc1c(C2CC2)ncc(F)c1C(=O)Nc1cccc([S@](C)(=N)=O)c1 [Example 37C]", "IC50", "> 200 nM"]
]}

Enquiry: Observed IC50 on human Nav1.8/b3 (Homo sapiens, UniProt Q9Y5Y9) for Cc1nc(F)ccc1Oc1ncc(C(F)(F)F)c(C)c1C(=O)Nc1ccc(F)c(S(C)(=O)=O)c1 [Example 101C] , please.
Return: 5 to 50 nM

Origin of the recorded values: patent US20260356804A1
